- TESTED_TARGET: PRMT5/MEP50 complex (Homo sapiens, UniProt O14744)
- Sequence (Q9BQA1 whole entry, one chain of several, further chain, the tested form may be a part): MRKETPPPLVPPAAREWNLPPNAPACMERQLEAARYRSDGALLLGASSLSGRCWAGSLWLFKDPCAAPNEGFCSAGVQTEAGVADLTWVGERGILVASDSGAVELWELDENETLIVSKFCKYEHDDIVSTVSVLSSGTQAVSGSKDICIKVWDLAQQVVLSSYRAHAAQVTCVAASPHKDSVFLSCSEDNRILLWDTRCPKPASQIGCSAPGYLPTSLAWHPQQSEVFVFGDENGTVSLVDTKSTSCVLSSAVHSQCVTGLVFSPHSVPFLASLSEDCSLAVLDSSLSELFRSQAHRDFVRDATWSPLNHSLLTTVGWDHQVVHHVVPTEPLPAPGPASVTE
- METHOD_NOTES: Inhibition of recombinant human fetal brain FLAG-tagged PRMT5/full length human testis 6His-tagged MEP50 expressed in baculovirus infected insect Sf9 cells using human histone H4 (1 to 15 residues) as substrate preincubated for 30 mins followed by [3H]-SAM addition
OBSERVABLE: IC50

Observe how each entry below is paired with its result.
CN1CCN(c2cccc(C(=O)NCC(O)CN3CCc4ccccc4C3)c2)CC1 (stereo not drawn) :: < 100 nM
O=C(NCC(O)CN1CCc2ccccc2C1)c1cccc(CN2CCNCC2)c1 (stereo not drawn) :: < 100 nM
O=C(Nc1cccc(OCC(O)CN2CCc3ccccc3C2)c1)c1cocn1 (stereo not drawn) :: 1000 to 10000 nM
O=c1cccc(CC(O)CN2CCc3ccccc3C2)[nH]1 (stereo not drawn) :: 10000 to 50000 nM
CS(=O)(=O)Nc1cccnc1OCC(=O)NCC(O)CN1CCc2ccccc2C1 (stereo not drawn) :: 1000 to 10000 nM

Log: PRMT5/MEP50 complex (Homo sapiens, UniProt O14744), compound COc1cccc(-c2cccc(OCC(O)CN3CCc4ccccc4C3)c2)c1 (stereo not drawn) , IC50 = 101 to 1000 nM

Log: PRMT5/MEP50 complex (Homo sapiens, UniProt O14744), compound Cn1ncc2ccc(-c3cc(NCC(O)CN4CCc5ccccc5C4)ncn3)cc21 (stereo not drawn) , IC50 = 101 to 1000 nM

Log: PRMT5/MEP50 complex (Homo sapiens, UniProt O14744), compound O=C(c1cccc(-c2cccc(OCC(O)CN3CCc4ccccc4C3)c2)c1)N1CCCC1 (stereo not drawn) , IC50 = 101 to 1000 nM

Log: PRMT5/MEP50 complex (Homo sapiens, UniProt O14744), compound OC(COC1Cc2ccccc2C1)CN1CCc2ccccc2C1 (stereo not drawn) , IC50 = 1000 to 10000 nM

Log: PRMT5/MEP50 complex (Homo sapiens, UniProt O14744), compound O=C(COc1ccccc1-c1cc[nH]n1)NC[C@H](O)CN1CCc2ccccc2C1 , IC50 = < 100 nM

Log: PRMT5/MEP50 complex (Homo sapiens, UniProt O14744), compound O=C(CNc1ccccc1)NCC(O)CN1CCc2ccccc2C1 (stereo not drawn) , IC50 = 1000 to 10000 nM

* * *

- TESTED_TARGET: Protein arginine N-methyltransferase 5 (Homo sapiens)
- Sequence (O14744 whole entry): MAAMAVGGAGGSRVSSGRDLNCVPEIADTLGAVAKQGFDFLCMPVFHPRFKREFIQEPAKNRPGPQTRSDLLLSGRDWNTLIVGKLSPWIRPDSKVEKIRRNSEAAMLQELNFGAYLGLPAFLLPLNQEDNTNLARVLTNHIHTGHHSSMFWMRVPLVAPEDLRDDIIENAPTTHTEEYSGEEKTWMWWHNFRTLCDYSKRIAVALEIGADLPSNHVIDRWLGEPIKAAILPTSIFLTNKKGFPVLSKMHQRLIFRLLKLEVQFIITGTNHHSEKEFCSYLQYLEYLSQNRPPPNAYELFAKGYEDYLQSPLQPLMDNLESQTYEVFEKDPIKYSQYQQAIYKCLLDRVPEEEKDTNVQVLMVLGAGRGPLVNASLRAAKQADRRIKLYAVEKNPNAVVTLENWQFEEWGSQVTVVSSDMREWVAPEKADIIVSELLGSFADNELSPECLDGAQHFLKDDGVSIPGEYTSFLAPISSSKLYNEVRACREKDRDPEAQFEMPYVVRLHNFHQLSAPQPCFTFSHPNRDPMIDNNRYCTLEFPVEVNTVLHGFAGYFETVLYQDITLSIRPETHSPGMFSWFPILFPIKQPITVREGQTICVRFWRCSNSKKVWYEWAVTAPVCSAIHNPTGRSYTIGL
- METHOD_NOTES: Inhibition of PRMT5 in human Z138 cells assessed as decrease in di-methyl arginine levels after 96 hrs by Western blot method
pEC50: −log10 of the molar value.
OBSERVABLE: pEC50

Observe how each entry below is paired with its result.
O=C(NCC(O)CN1Cc2ccccc2C1)c1cccc(NC2CCOCC2)c1 (stereo unspecified) :: 6.00 to 7.00
Cn1ncc2ccc(OCC(=O)NCC(O)CN3CCc4ccccc4C3)cc21 (stereo unspecified) :: 6.00 to 7.00
Cn1cnc2ccc(-c3cccc(NCC(O)CN4CCc5ccccc5C4)n3)cc21 (stereo unspecified) :: 5.00 to 6.00
O=C1CN(c2cccc(N3CCOCC3)c2)CCN1CC(O)CN1CCc2ccccc2C1 (stereo unspecified) :: > 7.00

For record Cn1nccc1-c1cccc(CC(=O)NCC(O)CN2CCc3ccccc3C2)c1 (stereo unspecified) the listed pEC50 is 6.00 to 7.00

For record OC(CNc1cc(-c2ccc3ncn(C4CCNCC4)c3c2)ccn1)CN1CCc2ccccc2C1 (stereo unspecified) the listed pEC50 is 6.00 to 7.00

For record OC(COc1cccc(-c2ccccc2C(F)(F)F)c1)CN1CCc2ccccc2C1 (stereo unspecified) the listed pEC50 is 5.00 to 6.00
